Target: JAK3 (Homo sapiens (Human), UniProt P52333)
Sequence (P52333 whole entry, species assumed): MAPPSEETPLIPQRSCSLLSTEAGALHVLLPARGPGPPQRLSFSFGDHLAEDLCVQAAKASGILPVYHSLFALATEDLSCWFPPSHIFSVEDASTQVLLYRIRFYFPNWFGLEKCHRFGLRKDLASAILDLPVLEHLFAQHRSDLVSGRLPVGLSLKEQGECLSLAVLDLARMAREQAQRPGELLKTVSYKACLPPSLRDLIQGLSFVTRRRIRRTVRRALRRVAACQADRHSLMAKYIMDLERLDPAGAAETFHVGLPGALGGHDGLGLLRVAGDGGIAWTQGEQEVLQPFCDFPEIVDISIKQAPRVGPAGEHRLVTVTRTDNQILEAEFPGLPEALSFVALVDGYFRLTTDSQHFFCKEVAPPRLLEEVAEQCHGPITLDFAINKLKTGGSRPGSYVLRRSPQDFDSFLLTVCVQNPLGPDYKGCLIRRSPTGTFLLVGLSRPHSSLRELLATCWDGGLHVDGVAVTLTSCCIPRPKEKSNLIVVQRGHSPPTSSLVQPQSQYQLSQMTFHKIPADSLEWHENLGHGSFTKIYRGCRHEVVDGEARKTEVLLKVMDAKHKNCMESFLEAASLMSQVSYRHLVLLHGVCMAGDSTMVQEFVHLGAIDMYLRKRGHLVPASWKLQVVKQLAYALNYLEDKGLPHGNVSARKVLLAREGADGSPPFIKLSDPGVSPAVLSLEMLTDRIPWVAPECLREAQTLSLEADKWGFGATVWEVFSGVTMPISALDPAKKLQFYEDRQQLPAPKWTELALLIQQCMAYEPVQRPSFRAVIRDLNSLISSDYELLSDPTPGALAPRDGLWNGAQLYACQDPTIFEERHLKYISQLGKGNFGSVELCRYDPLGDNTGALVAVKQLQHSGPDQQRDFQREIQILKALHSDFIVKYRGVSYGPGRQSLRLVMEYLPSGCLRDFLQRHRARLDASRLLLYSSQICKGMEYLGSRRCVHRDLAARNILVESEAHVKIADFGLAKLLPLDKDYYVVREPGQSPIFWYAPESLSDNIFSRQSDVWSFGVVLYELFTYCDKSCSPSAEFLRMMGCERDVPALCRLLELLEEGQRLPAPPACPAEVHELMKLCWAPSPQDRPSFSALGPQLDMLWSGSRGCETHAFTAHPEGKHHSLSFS
Assay: JAK/TYK2 Assay (Kinase Glo luminescence), JAK3
Format: biochemical
Conditions: 1.5 nM enzyme, 2 uM ATP, 4 uM pEY, 1 hr
pIC50: −log10 of the molar value.
pIC50 reference
Property: pIC50

- CC[C@H](Cn1ccc2cnc(Nc3cnn(CC(=O)O[C@@H]4C[C@@H](C(=O)OC(C)C)N(C)C4)c3)nc21)C(C)C [Compound 134]: 6.00 to 7.00
- CCOC(=O)[C@@H]1C[C@@H](OC(=O)Cn2cc(Nc3ncc4ccn(C[C@@H](CC)C(C)C)c4n3)cn2)CN1C [Compound 133]: > 7.00

The measurements presented in this section are drawn from patent US11459333B2.
